SYSTEM TESTED: human JAK3 (Homo sapiens)
Construct: catalytic domain (amino acids 781-1124; catalog number PV3855)
Sequence (P52333 781-1124): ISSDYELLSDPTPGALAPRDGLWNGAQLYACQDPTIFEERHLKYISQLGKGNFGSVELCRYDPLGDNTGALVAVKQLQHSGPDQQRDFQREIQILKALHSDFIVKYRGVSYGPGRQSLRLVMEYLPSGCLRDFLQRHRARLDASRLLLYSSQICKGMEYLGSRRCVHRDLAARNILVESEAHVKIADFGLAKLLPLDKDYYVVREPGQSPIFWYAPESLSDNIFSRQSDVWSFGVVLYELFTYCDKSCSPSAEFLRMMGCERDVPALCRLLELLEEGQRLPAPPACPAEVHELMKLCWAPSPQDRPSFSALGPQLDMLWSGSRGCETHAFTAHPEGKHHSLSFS
EXPERIMENTAL PROTOCOL: JAK3 inhibition assay
CONDITION: recombinant human JAK3 catalytic domain; polyGT substrate
READOUT KIND: IC50

Worked examples, 3 compounds total:
COMPOUND	IC50
CCc1cc(C(C#N)N2CCC[C@@H]2COC)ccc1N(C)c1cc2c(cn1)ncn2C (stereo partly shown)	501 to 1000 nM
CCc1cc(-c2cncnc2)ccc1N(C)c1cc2c(cn1)ncn2C	> 1000 nM
CN(c1cc2c(cn1)ncn2C)c1ccc(C2CN(S(=O)(=O)C(F)F)C2)cc1OC(F)F	0.01 to 100 nM

Now for another entry.
IN: Give the measured IC50 of CCc1cc(N2CCCC2=O)ncc1N(C)c1cc2c(cn1)ncn2C .
OUT: > 1000 nM

---

SYSTEM TESTED: human JAK1 (Homo sapiens)
Construct: catalytic domain, amino acids 866-1154; catalog number PV4774
Sequence (P23458 866-1154): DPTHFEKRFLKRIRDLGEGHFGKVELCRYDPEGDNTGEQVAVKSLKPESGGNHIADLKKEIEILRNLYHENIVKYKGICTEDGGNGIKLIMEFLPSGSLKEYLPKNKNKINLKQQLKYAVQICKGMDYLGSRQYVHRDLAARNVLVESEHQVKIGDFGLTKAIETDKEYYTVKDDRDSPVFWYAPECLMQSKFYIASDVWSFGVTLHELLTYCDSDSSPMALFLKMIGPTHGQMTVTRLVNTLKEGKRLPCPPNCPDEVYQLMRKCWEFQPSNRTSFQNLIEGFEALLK
EXPERIMENTAL PROTOCOL: JAK1 inhibition assay (polyGT substrate / Ulight-JAK1 peptide)
CONDITION: recombinant human JAK1 catalytic domain; polyGT or Ulight-JAK1 peptide assay
Below: a set of entries, each annotated with reported IC50.

MOLECULE	SYSTEM TESTED	IC50
CCc1cc(C2CN(S(=O)(=O)C(C)C)C2)ncc1N(C)c1cc2c(cn1)ncn2C [Compound 330]	human JAK1 (Homo sapiens)	0.01 to 100 nM
CCc1cc(C2CN(C(=O)C3(C#N)CC3)C2)ccc1N(C)c1cc2c(cn1)ncn2C [Compound 348]	human JAK1 (Homo sapiens)	101 to 500 nM
CN(c1ccc(OCC2CC2)cc1)c1cc2c(cn1)ncn2C [Compound 24]	human JAK1 (Homo sapiens)	101 to 500 nM

Here is another molecule to look at.
IN: Query IC50 on human JAK1 (Homo sapiens) for CCc1cc(C2=CCN(C(=O)NC#N)CC2)ccc1N(C)c1cc2c(cn1)ncn2C [Compound 203]
OUT: 0.01 to 100 nM

---

Let's look at some compounds and their measured IC50.
SYSTEM TESTED: human TYK2 (Homo sapiens)
Construct: catalytic domain (amino acids 871-1187; catalog number 08-147)
Sequence (P29597 871-1187): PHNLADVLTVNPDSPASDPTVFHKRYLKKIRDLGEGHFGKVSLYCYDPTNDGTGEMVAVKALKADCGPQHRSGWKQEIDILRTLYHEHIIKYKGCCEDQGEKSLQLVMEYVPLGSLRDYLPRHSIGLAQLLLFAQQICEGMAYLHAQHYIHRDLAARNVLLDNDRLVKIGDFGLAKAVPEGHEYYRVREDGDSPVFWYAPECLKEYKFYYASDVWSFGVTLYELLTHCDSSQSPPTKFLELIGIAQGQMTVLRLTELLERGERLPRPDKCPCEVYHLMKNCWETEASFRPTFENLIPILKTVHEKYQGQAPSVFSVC
EXPERIMENTAL PROTOCOL: TYK2 inhibition assay
CONDITION: recombinant human TYK2 catalytic domain, polyGT substrate

// known answers, use as guide
COMPOUND	REPORTED
CCc1cc(CNC2CCS(=O)(=O)C2)ccc1N(C)c1cc2c(cn1)ncn2C (centres unmarked)	501 to 1000 nM
CCc1cc(C(C#N)N2CCC(O)CC2)ccc1N(C)c1cc2c(cn1)ncn2C (centres unmarked)	0.01 to 100 nM
CCN(c1ccc2occc2c1)c1cc2c(cn1)ncn2C	101 to 500 nM
CN(c1cc2c(cn1)ncn2C)c1ccc(C2CN(C(=O)OC(C)(C)C)C2)cc1OC(F)F	> 1000 nM

IN: Looking for the measured IC50 of COc1cc(-c2cnn(C)c2)ncc1N(C)c1cc2c(cn1)ncn2C , can you help?
OUT: > 1000 nM

IN: Quick one: IC50 of CCc1cc(CN(C)S(C)(=O)=O)c(F)cc1N(C)c1cc2c(cn1)ncn2C ?
OUT: 0.01 to 100 nM

IN: Form field: reported IC50 of CCc1cc(CN(C)S(C)(=O)=O)ccc1N(C)c1cc2c(cn1)ncn2C
OUT: 0.01 to 100 nM

IN: Any idea what IC50 was measured for CN(c1cc2c(cn1)ncn2C)c1ccc(C2CN(C(=O)N3CCC3)C2)cc1OC(F)F ?
OUT: > 1000 nM
